Substrate: O=C1CCC/C1=C\c1ccccc1
test method notes: purified protein
Type: biochemical, Bacillus subtilis
setup conditions: 1.0 mM NADPH, 10 μM enzyme, PBS 100 mM, pH 7.5, 30 °C
Recorded measurements of kcat, one per entry
Unit s⁻¹ implied. Number only.

Take a look at these entries with their results.
YqjM (Bacillus subtilis subsp. subtilis str. 168; C26A/I69Y) (protein, ene-reductase, FMN enzyme) ARKLFTPITIKDMTLKNRIVMSPMAMYSSHEKDGKLTPFHMAHYISRAIGQVGLIIVEASAVNPQGRYTDQDLGIWSDEHIEGFAKLTEQVKEQGSKIGIQLAHAGRKAELEGDIFAPSAIAFDEQSATPVEMSAEKVKETVQEFKQAAARAKEAGFDVIEIHAAHGYLIHEFLSPLSNHRTDEYGGSPENRYRFLREIIDEVKQVWDGPLFVRVSASDYTDKGLDIADHIGFAKWMKEQGVDLIDCSSGALVHADINVFPGYQVSFAEKIREQADMATGAVGMITDGSMAEEILQNGRADLIFIGRELLRDPFFARTAAKQLNTEIPAPVQYERGW = 0.89
YqjM (Bacillus subtilis subsp. subtilis str. 168; C26G/I69Y/Y169F) (protein, ene-reductase, FMN enzyme) ARKLFTPITIKDMTLKNRIVMSPMGMYSSHEKDGKLTPFHMAHYISRAIGQVGLIIVEASAVNPQGRYTDQDLGIWSDEHIEGFAKLTEQVKEQGSKIGIQLAHAGRKAELEGDIFAPSAIAFDEQSATPVEMSAEKVKETVQEFKQAAARAKEAGFDVIEIHAAHGFLIHEFLSPLSNHRTDEYGGSPENRYRFLREIIDEVKQVWDGPLFVRVSASDYTDKGLDIADHIGFAKWMKEQGVDLIDCSSGALVHADINVFPGYQVSFAEKIREQADMATGAVGMITDGSMAEEILQNGRADLIFIGRELLRDPFFARTAAKQLNTEIPAPVQYERGW = 0.56

Please look at the following protein next.
Task: Report kcat for YqjM (Bacillus subtilis subsp. subtilis str. 168; C26G/I69Y/Y28F) (protein, ene-reductase, FMN enzyme) ARKLFTPITIKDMTLKNRIVMSPMGMFSSHEKDGKLTPFHMAHYISRAIGQVGLIIVEASAVNPQGRYTDQDLGIWSDEHIEGFAKLTEQVKEQGSKIGIQLAHAGRKAELEGDIFAPSAIAFDEQSATPVEMSAEKVKETVQEFKQAAARAKEAGFDVIEIHAAHGYLIHEFLSPLSNHRTDEYGGSPENRYRFLREIIDEVKQVWDGPLFVRVSASDYTDKGLDIADHIGFAKWMKEQGVDLIDCSSGALVHADINVFPGYQVSFAEKIREQADMATGAVGMITDGSMAEEILQNGRADLIFIGRELLRDPFFARTAAKQLNTEIPAPVQYERGW
Result: 0.49
